B1: ALDH8A1 (parent)
chain: FTGSQPTAERITQLSAPHCKKLSL

variants of: B1; assay: protein stability index of a GFP-peptide fusion (GPS, HEK-293T) (PSI 1-6); higher = more stable; settings: c terminus: a fixed tail appended;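 also: lentivirally expressed fusions sorted by FACS into six bins by GFP to DsRed ratio, PSI derived from sequencing read proportions per bin multiplied by bin number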
PROPERTY LABEL: protein stability index
Output: the number by itself.

Enquiry: Please give measured protein stability index of the following entry: `C19S`
Return: 1.96

Enquiry: Please give measured protein stability index of the following entry: `T12H`
Return: 1.84

Enquiry: Please give measured protein stability index of the following entry: `T7S`
Return: 2.08

Enquiry: Please give measured protein stability index of the following entry: `F1E`
Return: 4.26

Enquiry: Please give measured protein stability index of the following entry: `Q5S`
Return: 3.01

Enquiry: Please give measured protein stability index of the following entry: `C19V`
Return: 2.04

Enquiry: Please give measured protein stability index of the following entry: `H18F`
Return: 2.25

Enquiry: Please give measured protein stability index of the following entry: `G3F`
Return: 1.97

Enquiry: Please give measured protein stability index of the following entry: `A16M`
Return: 1.91

Enquiry: Please give measured protein stability index of the following entry: `P17T`
Return: 2.24

Enquiry: Please give measured protein stability index of the following entry: `F1S`
Return: 3.92

Enquiry: Please give measured protein stability index of the following entry: `I11Y`
Return: 2.18

Enquiry: Please give measured protein stability index of the following entry: `I11L`
Return: 2.15

Enquiry: Please give measured protein stability index of the following entry: `K20Q`
Return: 2.8

Enquiry: Please give measured protein stability index of the following entry: `C19Q`
Return: 2.79

Enquiry: Please give measured protein stability index of the following entry: `C19E`
Return: 2.79

Enquiry: Please give measured protein stability index of the following entry: `C19K`
Return: 2.75

Enquiry: Please give measured protein stability index of the following entry: `R10N`
Return: 2.6

Enquiry: Please give measured protein stability index of the following entry: `L14V`
Return: 1.9

Enquiry: Please give measured protein stability index of the following entry: `H18K`
Return: 2.34

Enquiry: Please give measured protein stability index of the following entry: `R10C`
Return: 1.94

Enquiry: Please give measured protein stability index of the following entry: `R10T`
Return: 2.39

Enquiry: Please give measured protein stability index of the following entry: `F1C`
Return: 3.48

Enquiry: Please give measured protein stability index of the following entry: `S23F`
Return: 2.27

Enquiry: Please give measured protein stability index of the following entry: `A8H`
Return: 2.61

Enquiry: Please give measured protein stability index of the following entry: `F1Q`
Return: 4.31

Enquiry: Please give measured protein stability index of the following entry: `T2V`
Return: 1.02

Enquiry: Please give measured protein stability index of the following entry: `L24H`
Return: 2.52

Enquiry: Please give measured protein stability index of the following entry: `R10K`
Return: 1.81

Enquiry: Please give measured protein stability index of the following entry: `K20G`
Return: 2.85

Enquiry: Please give measured protein stability index of the following entry: `L14D`
Return: 3.04
